# Target or system: LmxCLK1 (Leishmania mexicana)
# Sequence (E9AMP2 1-422): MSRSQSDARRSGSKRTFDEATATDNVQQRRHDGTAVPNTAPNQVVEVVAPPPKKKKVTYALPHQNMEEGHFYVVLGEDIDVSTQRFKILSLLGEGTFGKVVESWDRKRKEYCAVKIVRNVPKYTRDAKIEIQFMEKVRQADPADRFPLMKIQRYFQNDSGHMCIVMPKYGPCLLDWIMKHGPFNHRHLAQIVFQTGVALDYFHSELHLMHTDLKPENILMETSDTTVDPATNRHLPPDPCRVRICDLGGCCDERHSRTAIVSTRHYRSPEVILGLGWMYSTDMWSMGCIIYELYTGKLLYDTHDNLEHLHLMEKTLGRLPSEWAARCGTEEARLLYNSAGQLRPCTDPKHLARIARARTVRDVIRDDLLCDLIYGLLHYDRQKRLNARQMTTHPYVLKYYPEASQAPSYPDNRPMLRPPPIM
# Method notes: biochemical
# Assay type: binding
# Measurement setup: DSF, 10 µM compound, 2 µM LmxCLK1, Run 1; read-out: ΔTm Run 1
# cutoff 0.3 °C applies to ΔTm at 10 µM; >= gives T, < gives F

[
  {
    "Smiles entry": "C=CC(=O)Nc1ccc2ncnc(Nc3ccc(OCc4cccc(F)c4)c(Cl)c3)c2c1",
    "Target or system": "LmxCLK1 (Leishmania mexicana)",
    "Cat": "F"
  },
  {
    "Smiles entry": "C[C@H](NC(=O)/C(C#N)=C/c1cccc(Br)n1)c1ccccc1",
    "Target or system": "LmxCLK1 (Leishmania mexicana)",
    "Cat": "F"
  },
  {
    "Smiles entry": "O=C(Nc1nc2cccc(-c3ccc(CN4CCS(=O)(=O)CC4)cc3)n2n1)C1CC1",
    "Target or system": "LmxCLK1 (Leishmania mexicana)",
    "Cat": "F"
  },
  {
    "Smiles entry": "COC[C@H]1OC(=O)c2coc3c2[C@@]1(C)C1=C(C3=O)[C@@H]2CCC(=O)[C@@]2(C)C[C@H]1OC(C)=O",
    "Target or system": "LmxCLK1 (Leishmania mexicana)",
    "Cat": "F"
  },
  {
    "Smiles entry": "C[C@@H](Oc1cc(-n2cnc3ccc(CN4CCN(C)CC4)cc32)sc1C(N)=O)c1ccccc1C(F)(F)F",
    "Target or system": "LmxCLK1 (Leishmania mexicana)",
    "Cat": "T"
  }
]

Query: Does ΔTm at 10 µM meet or surpass 0.3 °C for NC(=O)Nc1cc(-c2cccc(F)c2)sc1C(=O)N[C@H]1CCCNC1 ?
Reply: T

Query: Does ΔTm at 10 µM meet or surpass 0.3 °C for CS(=O)(=O)N1CCc2c(-c3cnc(N)nc3)nc(N3CCOCC3)nc21 ?
Reply: T

Query: Does ΔTm at 10 µM meet or surpass 0.3 °C for C#Cc1cccc(Nc2ncnc3cc4c(cc23)OCCOCCOCCO4)c1 ?
Reply: F

Query: Does ΔTm at 10 µM meet or surpass 0.3 °C for COc1ccc(Cl)c(Nc2nc3ccccc3nc2NS(=O)(=O)c2cccc(NC(=O)C(C)(C)N)c2)c1 ?
Reply: F

Query: Does ΔTm at 10 µM meet or surpass 0.3 °C for COCCNCc1ccc(-c2cc3nccc(Oc4ccc(NC(=S)NC(=O)Cc5ccc(F)cc5)cc4F)c3s2)nc1 ?
Reply: F

Query: Does ΔTm at 10 µM meet or surpass 0.3 °C for N#CC[C@H](C1CCCC1)n1cc(-c2ncnc3[nH]ccc23)cn1 ?
Reply: T

Query: Does ΔTm at 10 µM meet or surpass 0.3 °C for Cc1cc(Nc2ncc(Cl)c(Nc3ccccc3S(=O)(=O)C(C)C)n2)c(OC(C)C)cc1C1CCNCC1 ?
Reply: T

Query: Does ΔTm at 10 µM meet or surpass 0.3 °C for Cn1cc(-c2ccc3nnc(Sc4ccc5ncccc5c4)n3n2)cn1 ?
Reply: F

Query: Does ΔTm at 10 µM meet or surpass 0.3 °C for Cc1c(NC(=O)c2ccc(C(C)(C)C)cc2)cccc1-c1cn(C)c(=O)c(Nc2ccc(C(=O)N3CCOCC3)cc2)n1 ?
Reply: F

Where do these numbers come from? They come from paper PMC7619385.
